Field: HEK293 cynoKLB/R1c reporter assay EC50, Experiment - A. Provide a value for each of the binders that follow.
Tested System: cynomolgus beta klotho / human FGFR1c receptor complex on cells (cynomolgus monkey (Macaca …))
Sequence (chain, as listed by the source limits assumed, chain 1 of 2): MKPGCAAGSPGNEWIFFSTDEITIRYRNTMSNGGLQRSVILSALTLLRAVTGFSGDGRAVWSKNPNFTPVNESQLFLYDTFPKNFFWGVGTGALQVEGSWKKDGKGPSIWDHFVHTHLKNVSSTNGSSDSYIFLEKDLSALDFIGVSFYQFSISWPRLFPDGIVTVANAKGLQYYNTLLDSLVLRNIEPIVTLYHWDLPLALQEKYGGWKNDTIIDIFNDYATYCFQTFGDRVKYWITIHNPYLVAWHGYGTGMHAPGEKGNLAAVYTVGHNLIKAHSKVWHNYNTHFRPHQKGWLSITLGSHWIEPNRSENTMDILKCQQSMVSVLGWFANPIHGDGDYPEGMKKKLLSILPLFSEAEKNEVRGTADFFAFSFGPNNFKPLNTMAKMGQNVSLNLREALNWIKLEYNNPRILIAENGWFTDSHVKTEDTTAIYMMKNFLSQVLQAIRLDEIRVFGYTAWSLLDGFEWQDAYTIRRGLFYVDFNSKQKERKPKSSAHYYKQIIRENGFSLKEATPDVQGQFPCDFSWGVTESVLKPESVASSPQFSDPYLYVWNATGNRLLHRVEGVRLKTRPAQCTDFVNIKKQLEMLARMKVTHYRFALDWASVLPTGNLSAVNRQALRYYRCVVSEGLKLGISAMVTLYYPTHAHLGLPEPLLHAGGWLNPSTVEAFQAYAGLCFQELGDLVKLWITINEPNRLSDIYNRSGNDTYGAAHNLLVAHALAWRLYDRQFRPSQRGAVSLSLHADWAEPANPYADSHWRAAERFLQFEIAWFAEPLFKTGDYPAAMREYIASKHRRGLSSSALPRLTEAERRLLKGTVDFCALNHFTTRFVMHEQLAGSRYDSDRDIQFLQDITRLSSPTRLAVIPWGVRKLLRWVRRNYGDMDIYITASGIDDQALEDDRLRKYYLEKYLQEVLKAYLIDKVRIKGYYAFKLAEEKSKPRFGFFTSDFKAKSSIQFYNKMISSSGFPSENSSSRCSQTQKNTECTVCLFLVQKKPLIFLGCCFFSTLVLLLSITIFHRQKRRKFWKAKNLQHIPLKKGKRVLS
Sequence (chain, as listed by the source limits assumed, chain 2 of 2): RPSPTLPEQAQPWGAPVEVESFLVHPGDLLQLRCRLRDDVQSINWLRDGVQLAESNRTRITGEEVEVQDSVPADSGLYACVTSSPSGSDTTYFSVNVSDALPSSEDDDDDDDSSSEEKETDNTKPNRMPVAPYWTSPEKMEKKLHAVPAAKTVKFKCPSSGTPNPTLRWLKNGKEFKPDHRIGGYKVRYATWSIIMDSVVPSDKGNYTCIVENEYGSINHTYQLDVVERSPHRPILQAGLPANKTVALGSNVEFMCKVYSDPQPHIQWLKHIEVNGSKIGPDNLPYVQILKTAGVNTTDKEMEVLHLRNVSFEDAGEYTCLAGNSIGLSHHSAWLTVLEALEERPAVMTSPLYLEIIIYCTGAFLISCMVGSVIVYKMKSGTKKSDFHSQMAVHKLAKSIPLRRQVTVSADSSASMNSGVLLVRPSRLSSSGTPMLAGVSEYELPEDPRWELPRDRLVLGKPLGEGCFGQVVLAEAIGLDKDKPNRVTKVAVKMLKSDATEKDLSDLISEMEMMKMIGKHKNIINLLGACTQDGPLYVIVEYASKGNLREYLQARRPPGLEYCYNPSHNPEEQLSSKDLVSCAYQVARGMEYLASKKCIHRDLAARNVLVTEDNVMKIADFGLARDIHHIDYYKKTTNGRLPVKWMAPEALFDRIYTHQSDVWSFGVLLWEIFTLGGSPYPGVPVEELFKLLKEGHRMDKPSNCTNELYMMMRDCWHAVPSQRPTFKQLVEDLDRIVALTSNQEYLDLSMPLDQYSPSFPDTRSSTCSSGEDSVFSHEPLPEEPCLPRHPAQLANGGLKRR
Protocol Text: cell-based or functional assay
For clarity, give the value followed by its unit.

| Binder | Recorded Value |
| --- | --- |
| antibody 1G19 (antibody, V domains shown, Murine monoclonal antibody) VH: QVQLQESGPGLVKPSQSLSLTCSVTGYSITSGYYWNWIRQFPGNKLEWMGYINYGGSNNYNPSLKNRISITRDTSKNQFFLKLTSVTTEDTATYYCARRGAYYSNYDSFDVWGTGTTVTVSS VL: DIKMTQSPSSMYASLGERVTITCKASQDINSYLSWFQQKPGKSPKTLIYRANRLVDGVPSRFSGSGSGQDYSLTISSLEYEEMGIYYCLQYDEFPYTFGGGTKLEIK | 2.35 nM |

Shift focus to the following entry.
Input antibody 5H23 (antibody, V domains shown, Murine monoclonal antibody from hybridoma; also called 5H23-Alexa647 (labelled form)) VH: QVQLQQSGPELVKPGALVKISCKASGYTFTSYDINWVKQRPGQGLEWIGWIYPGDGSTKYNEKFKGKATLTADKSSRTAYMQLSSLTSENSAVYFCARSDYYGSRSFAYWGQGTLVTVSA VL: DIVLTQSPASLAVSLGQRATISCRASKSVSTSGYVYMHWNQQKPGQPPKLLIYLASYLESGVPARFSGSGSGTDFTLNIHPVEEEDAAIYYCQHSRDLTFPFGGGTKLEIK . Output HEK293 cynoKLB/R1c reporter assay EC50, Experiment - A: 0.165 nM
